Counter-ions that a name gives are not always drawn.
Form field: melting point (one value per entry).

Recorded results for 5 compounds are shown here.
-- ask Provide melting point value for the following compound: "COc1ccc(-c2cc3ncnc(Nc4ccc5[nH]ccc5c4)c3s2)cn1"
-- reply 243 to 249 °C

-- ask Provide melting point value for the following compound: Cc1cccc(Nc2ncnc3cc(-c4ccccc4)sc23)c1 (as salt: HCl)
-- reply 238 to 241 °C

-- ask Provide melting point value for the following compound: "Fc1ccc(-c2cc3ncnc(Nc4ccc5[nH]ccc5c4)c3s2)cc1"
-- reply 193 to 205 °C

-- ask Provide melting point value for the following compound: "O=[N+]([O-])c1cccc(-c2cc3ncnc(Nc4ccc5[nH]ccc5c4)c3s2)c1"
-- reply 175 to 183 °C

-- ask Provide melting point value for the following compound: "c1ccc(-c2cc3ncnc(Nc4ccc5[nH]ccc5c4)c3s2)cc1"
-- reply 255 to 258 °C (dec.)

New cases:
-- ask Provide melting point value for the following compound: "CC(=O)NCCNCc1ccc(-c2cc3ncnc(Nc4ccc5[nH]ccc5c4)c3s2)cc1"
-- reply 142 to 155 °C

-- ask Provide melting point value for the following compound: "c1nc(Nc2ccc3[nH]ccc3c2)c2sc(-c3ccc(CNC4CC4)cc3)cc2n1"
-- reply 176 to 180 °C

====

Form field: melting point (one value per entry).
Where a name gives a salt, the structure may show the parent alone.

Recorded results for 3 compounds are shown here.
-- ask Provide melting point value for the following compound: c1nc(Nc2ccc3[nH]ccc3c2)c2sc(-c3ccc(CNCCN4CCOCC4)cc3)cc2n1 [Example 24]
-- reply 100 to 111 °C

-- ask Provide melting point value for the following compound: O=C1CCCN1CCCNCc1ccc(-c2cc3ncnc(Nc4ccc5[nH]ccc5c4)c3s2)cc1 [Example 35]
-- reply 139 to 146 °C

-- ask Provide melting point value for the following compound: OCCN(CCO)Cc1ccc(-c2cc3ncnc(Nc4ccc5[nH]ccc5c4)c3s2)cc1 (as salt: mesylate) [Example 29]
-- reply 110 to 127 °C

New cases:
-- ask Provide melting point value for the following compound: Cc1cccc(Nc2ccc(Nc3ncnc4cc(-c5ccccc5)sc34)cc2)c1 [Example 63]
-- reply 170 to 171 °C

====

Structures can show the parent of a compound that is named as a salt.
metric: melting point

Recorded results for 6 compounds are shown here.
-- ask Provide melting point value for the following compound: "c1nc(Nc2ccc3[nH]ccc3c2)c2sc(-c3ccc(CNCCN4CCNCC4)cc3)cc2n1"
-- reply 178 to 191 °C

-- ask Provide melting point value for the following compound: "Cc1ccc(Nc2ccc(Nc3ncnc4cc(-c5ccccc5)sc34)cc2)cc1"
-- reply 221 to 222 °C

-- ask Provide melting point value for the following compound: "c1nc(Nc2ccc3[nH]ccc3c2)c2sc(-c3ccsc3)cc2n1"
-- reply 178 to 189 °C

-- ask Provide melting point value for the following compound: "c1nc(Nc2ccc3[nH]ccc3c2)c2sc(-c3ccc(CN4CCOCC4)cc3)cc2n1"
-- reply 141 to 152 °C

-- ask Provide melting point value for the following compound: "COc1cccc(Nc2ccc(Nc3ncnc4cc(-c5ccccc5)sc34)cc2)c1"
-- reply 189 to 191 °C

-- ask Provide melting point value for the following compound: "COc1ccc(Nc2ccc(Nc3nc(C)nc4cc(-c5ccccc5)sc34)cc2)cc1"
-- reply 181 to 185 °C

Continue with the next compound.
-- ask Provide melting point value for the following compound: CN1CCN(Cc2ccc(-c3cc4ncnc(Nc5ccc6[nH]ccc6c5)c4s3)cc2)CC1 (as salt: mesylate)
-- reply 143 to 150 °C

Source: patent US6492383B1
